Assay: Pharmacokinetics of PEGylated protease inhibitor prodrugs in rats
Format: in vivo, male Sprague-Dawley rats
Settings: male, Sprague-Dawley, rat, oral, prodrug in plasma
Measurement kind: MRT last (h)
The reply should be a number in h, with the unit left off.

• COCCOCCOCCOCCOCCOC(=O)N[C@@H](C(=O)N[C@@H](Cc1ccccc1)[C@H](CN(Cc1ccc(-c2ccccn2)cc1)NC(=O)[C@H](NC(=O)OC)C(C)(C)C)OC(=O)CCCC(=O)O[C@@H]1[C@@H](O)[C@@H](O)O[C@@H]1[C@H](O)CO)C(C)(C)C = 11.4

Entry "COCCOCCOCCOCCOCCOC(=O)N[C@H](C(=O)N[C@@H](Cc1ccccc1)[C@H](CN(Cc1ccc(-c2ccccn2)cc1)NC(=O)[C@@H](NC(=O)OC)C(C)(C)C)OC(=O)[C@@H](N)CC(C)C)C(C)(C)C" , MRT last reported as 1.71
